The measured values listed here are drawn from paper PMC11183071.

Molecular target: T1, Clostridium perfringens enterotoxin with C-terminal decahistidine tag (CpE-His10) (Clostridium perfringens, UniProt P01558 1-319)
T1 sequence: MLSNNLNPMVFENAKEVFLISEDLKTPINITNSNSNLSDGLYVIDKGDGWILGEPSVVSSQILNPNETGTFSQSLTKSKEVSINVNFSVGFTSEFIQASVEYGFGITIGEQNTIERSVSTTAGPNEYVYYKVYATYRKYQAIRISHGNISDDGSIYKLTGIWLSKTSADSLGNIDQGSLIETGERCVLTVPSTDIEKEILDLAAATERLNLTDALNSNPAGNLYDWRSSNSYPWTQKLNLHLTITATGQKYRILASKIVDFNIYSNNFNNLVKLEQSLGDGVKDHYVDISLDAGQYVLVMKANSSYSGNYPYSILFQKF
Test: BLI
Details: both partners purified
pKd: −log10 of the molar value.
MEASUREMENT_NAME: pKd

[[record]]
binder = "human claudin-3, biotinylated (hsCLDN-3-Biotin) (natural protein, biotin (NHS-PEG4-Biotin) on the N-terminal amine) MSMGLEITGTALAVLGWLGTIVCCALPMWRVSAFIGSNIITSQNIWEGLWMNCVVQSTGQMQCKVYDSLLALPQDLQAARALIVVAILLAAFGLLVALVGAQCTNCVQDDTAKAKITIVAGVLFLLAALLTLVPVSWSANTIIRDFYNPVVPEAQKREMGAGLYVGWAAAALQLLGGALLCCSCPPREKKYTATKVVYSAPRSTGPGASLGTGYDRKDYV"
quantitative_result = 7.11

[[record]]
binder = "mouse claudin-4, biotinylated (mmCLDN-4-Biotin) (natural protein, biotin (NHS-PEG4-Biotin) on the N-terminal amine) MASMGLQVLGISLAVLGWLGIILSCALPMWRVTAFIGSNIVTAQTSWEGLWMNCVVQSTGQMQCKMYDSMLALPQDLQAARALMVISIIVGALGMLLSVVGGKCTNCMEDETVKAKIMITAGAVFIVASMLIMVPVSWTAHNVIRDFYNPMVASGQKREMGASLYVGWAASGLLLLGGGLLCCSCPPRSNDKPYSAKYSAARSVPASNYV"
quantitative_result = 7.75

[[record]]
binder = "human claudin-4, biotinylated (hsCLDN-4-Biotin) (natural protein, biotin (NHS-PEG4-Biotin) on the N-terminal amine) MASMGLQVMGIALAVLGWLAVMLCCALPMWRVTAFIGSNIVTSQTIWEGLWMNCVVQSTGQMQCKVYDSLLALPQDLQAARALVIISIIVAALGVLLSVVGGKCTNCLEDESAKAKTMIVAGVVFLLAGLMVIVPVSWTAHNIIQDFYNPLVASGQKREMGASLYVGWAASGLLLLGGGLLCCNCPPRTDKPYSAKYSAARSAAASNYV"
quantitative_result = 8.14

[[record]]
binder = "mouse claudin-3, biotinylated (mmCLDN-3-Biotin) (natural protein, biotin (NHS-PEG4-Biotin) on the N-terminal amine) MSMGLEITGTSLAVLGWLCTIVCCALPMWRVSAFIGSSIITAQITWEGLWMNCVVQSTGQMQCKMYDSLLALPQDLQAARALIVVSILLAAFGLLVALVGAQCTNCVQDETAKAKITIVAGVLFLLAALLTLVPVSWSANTIIRDFYNPLVPEAQKREMGAGLYVGWAAAALQLLGGALLCCSCPPRDKYAPTKILYSAPRSTGPGTGTGTAYDRKDYV"
quantitative_result = 7.79

[[record]]
binder = "human claudin-9, biotinylated (hsCLDN-9-Biotin) (natural protein, biotin (NHS-PEG4-Biotin) on the N-terminal amine) MASTGLELLGMTLAVLGWLGTLVSCALPLWKVTAFIGNSIVVAQVVWEGLWMSCVVQSTGQMQCKVYDSLLALPQDLQAARALCVIALLLALLGLLVAITGAQCTTCVEDEGAKARIVLTAGVILLLAGILVLIPVCWTAHAIIQDFYNPLVAEALKRELGASLYLGWAAAALLMLGGGLLCCTCPPPQVERPRGPRLGYSIPSRSGASGLDKRDYV"
quantitative_result = 7.98

